Biological target: T1, orthogonal hCD122 receptor (hoRb), hCD122 with H133D and Y134F (human, UniProt P14784 27-550)
T1 sequence: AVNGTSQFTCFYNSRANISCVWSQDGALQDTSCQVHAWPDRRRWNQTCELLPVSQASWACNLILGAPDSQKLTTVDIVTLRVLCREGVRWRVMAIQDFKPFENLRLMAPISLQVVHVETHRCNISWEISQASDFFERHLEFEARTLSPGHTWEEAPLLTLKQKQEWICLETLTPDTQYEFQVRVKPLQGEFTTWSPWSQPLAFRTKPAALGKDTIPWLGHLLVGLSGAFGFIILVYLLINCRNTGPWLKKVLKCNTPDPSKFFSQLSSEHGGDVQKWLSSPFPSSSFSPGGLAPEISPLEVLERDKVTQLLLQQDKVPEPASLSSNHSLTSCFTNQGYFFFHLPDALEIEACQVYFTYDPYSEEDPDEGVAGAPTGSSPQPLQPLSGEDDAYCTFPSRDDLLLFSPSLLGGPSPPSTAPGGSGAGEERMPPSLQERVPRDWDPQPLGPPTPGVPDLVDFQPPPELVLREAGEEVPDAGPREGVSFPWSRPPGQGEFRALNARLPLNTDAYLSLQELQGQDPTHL
Test: cell-based or functional assay
For each entry below, report its NKL Ortho Proliferation Signal 1:2 value.
Give the figure by itself; no unit, no explanation.

[ask] Can you look up the measured NKL Ortho Proliferation Signal 1:2 of SQVLIA (ligand) APTSSSTKKTQLQLSQLLVLLIAILNGINNYKNPKLTRMLTFKFYMPKKATELKHLQCLEEELKPLEEVLNLAQSKNFHLRPRDLISNINVIVLELKGSETTFMCEYADETATIVEFLNRWITFCQSIISTLT for me?
[reply] 13000

[ask] Same thing, different binder: L18Y, SQVLKA (ligand) APTSSSTKKTQLQLSQLYVLLKAILNGINNYKNPKLTRMLTFKFYMPKKATELKHLQCLEEELKPLEEVLNLAQSKNFHLRPRDLISNINVIVLELKGSETTFMCEYADETATIVEFLNRWITFCQSIISTLT
[reply] 37300

[ask] Same thing, different binder: SQVLKV (ligand) APTSSSTKKTQLQLSQLLVLLKVILNGINNYKNPKLTRMLTFKFYMPKKATELKHLQCLEEELKPLEEVLNLAQSKNFHLRPRDLISNINVIVLELKGSETTFMCEYADETATIVEFLNRWITFCQSIISTLT
[reply] 63400

[ask] Same thing, different binder: L14M, SQVLKA (ligand) APTSSSTKKTQLQMSQLLVLLKAILNGINNYKNPKLTRMLTFKFYMPKKATELKHLQCLEEELKPLEEVLNLAQSKNFHLRPRDLISNINVIVLELKGSETTFMCEYADETATIVEFLNRWITFCQSIISTLT
[reply] 57200

[ask] Same thing, different binder: ΔP2, SQVLKA (ligand) ATSSSTKKTQLQLSQLLVLLKAILNGINNYKNPKLTRMLTFKFYMPKKATELKHLQCLEEELKPLEEVLNLAQSKNFHLRPRDLISNINVIVLELKGSETTFMCEYADETATIVEFLNRWITFCQSIISTLT
[reply] 64000
